# assayed system: recombinant full-length USP7 (Homo sapiens, UniProt Q93009)
# Construct: A 25 μl reaction volume containing recombinant full-length USP7 (62 pM)
# Sequence (Q93009 whole entry): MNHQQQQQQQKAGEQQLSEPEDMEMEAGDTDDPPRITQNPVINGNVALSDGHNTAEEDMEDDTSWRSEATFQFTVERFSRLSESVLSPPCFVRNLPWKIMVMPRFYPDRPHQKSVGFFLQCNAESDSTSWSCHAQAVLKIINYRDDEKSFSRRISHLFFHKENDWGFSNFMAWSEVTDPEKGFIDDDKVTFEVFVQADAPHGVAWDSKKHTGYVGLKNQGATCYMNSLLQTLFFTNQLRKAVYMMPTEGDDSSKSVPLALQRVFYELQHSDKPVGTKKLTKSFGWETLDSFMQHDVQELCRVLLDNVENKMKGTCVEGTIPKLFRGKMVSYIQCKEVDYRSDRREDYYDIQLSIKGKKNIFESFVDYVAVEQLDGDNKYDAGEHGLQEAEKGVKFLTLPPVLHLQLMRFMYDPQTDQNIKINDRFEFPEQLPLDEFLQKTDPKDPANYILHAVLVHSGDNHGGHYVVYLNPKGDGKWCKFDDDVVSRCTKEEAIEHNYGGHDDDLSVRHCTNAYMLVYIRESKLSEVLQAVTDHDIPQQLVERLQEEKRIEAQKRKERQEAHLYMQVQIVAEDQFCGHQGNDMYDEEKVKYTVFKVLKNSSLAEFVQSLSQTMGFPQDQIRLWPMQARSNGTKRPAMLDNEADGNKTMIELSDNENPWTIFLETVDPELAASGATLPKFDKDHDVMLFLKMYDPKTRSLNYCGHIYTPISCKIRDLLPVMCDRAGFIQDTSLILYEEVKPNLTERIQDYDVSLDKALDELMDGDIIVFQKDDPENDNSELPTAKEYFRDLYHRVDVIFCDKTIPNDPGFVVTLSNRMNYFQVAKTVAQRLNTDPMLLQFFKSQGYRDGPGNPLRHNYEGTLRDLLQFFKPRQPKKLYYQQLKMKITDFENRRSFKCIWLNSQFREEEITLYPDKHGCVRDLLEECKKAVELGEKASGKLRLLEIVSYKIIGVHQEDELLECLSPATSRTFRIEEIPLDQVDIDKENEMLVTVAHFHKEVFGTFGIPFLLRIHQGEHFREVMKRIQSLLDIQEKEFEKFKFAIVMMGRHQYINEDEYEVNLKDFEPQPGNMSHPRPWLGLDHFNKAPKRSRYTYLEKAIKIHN
# protocol summary: USP7-mediated ubiquitin-rhodamine cleavage assay
# Format: biochemical
# assay setup: recombinant full-length USP7 62 pM; ubiquitin-rhodamine 100 nM; 30-minute incubation with compound, 1 hour reaction at room temperature; read-out: Potency: USP7 IC50
Where a name gives a salt, the structure may show the parent alone.
measurement label: IC50

Inquiry: For the compound shown here, `Cc1cc(Cl)cc(-c2ccnc3cc(CN4C(=O)CCC4=O)sc23)c1OC1CCN(C)CC1` , give the reported IC50.
Reply text: < 1000 nM

Inquiry: Repeat with Cc1cc(Cl)cc(-c2ncnc3cc(CN4C(=O)C5C(C4=O)C5(C)C)sc23)c1OC1CNCC1(C)F (stereo not shown) [Example 386, dihydrochloride]
Reply text: < 1000 nM

Inquiry: Repeat with `O=C1CCC(=O)N1Cc1cc2nccc(-c3cc(Cl)ccc3O[C@@H]3CNC[C@@H]3F)c2s1`
Reply text: 1000 to 10000 nM

Inquiry: Repeat with `Cc1cc(Cl)cc(-c2ncnc3cc(CN4C(=O)CCCC4=O)sc23)c1O[C@@H]1CNC[C@@H]1F`
Reply text: < 1000 nM

Inquiry: Repeat with `Cc1cc([N+](=O)[O-])cc(-c2ccnc3cc(Cn4c(=O)ccn(CC(F)(F)F)c4=O)sc23)c1Oc1cncc(N)c1`
Reply text: < 1000 nM

Inquiry: Repeat with `Cc1cc(Cl)cc(-c2ncnc3cc(CN4C(=O)CC(C)(C)C4=O)sc23)c1O[C@@H]1CNC[C@@H]1F`
Reply text: < 1000 nM

---
Inquiry: For the compound shown here, `Cc1cc(Cl)cc(-c2ccnc3cc(CO)sc23)c1O[C@@H]1C[C@H]2CC[C@@H](C1)N2` , give the reported IC50.
Reply text: 1000 to 10000 nM
